Molecular target: human glucagon receptor (human, UniProt P47871 26-477)
Test: cell-based or functional assay
Starred links: 1 amine or outer side, 2 acyl side, 3 side chain; linkers in the order of their positions; H or OH if unused. Non-standard residues stand in square brackets, D forms with d. No end group written: not given here. *: point of attachment. AMCB = 2-amino-5-(4-chloro-2-methylphenyl)pentanoic acid, Cc1cc(Cl)ccc1CCC[C@H](N[*:1])C(=O)[*:2]; 2CF3‑APPA = 2-amino-5-(2-(trifluoromethyl)phenyl)pentanoic acid; Bip(2'-Et-4'-OMe) = CCc1cc(OC)ccc1-c1ccc(C[C@H](N)C(=O)O)cc1; Leu(5,5,5,5',5',5'-F6) = N[C@@H](CC(C(F)(F)F)C(F)(F)F)C(=O)O; 2F‑APPA = 2-amino-5-(2-fluorophenyl)pentanoic acid; αMePhe(2-F) = C[C@](N)(Cc1ccccc1F)C(=O)O; hhPhe = N[C@@H](CCCc1ccccc1)C(=O)O; aThr = C[C@H](O)[C@H](N)C(=O)O; Ac5c = NC1(C(=O)O)CCCC1; CNB = not defined here; Aib = CC(C)(N)C(=O)O; Moc = COC(=O)*
Parameter threshold = 8 pmol/ml/µg prt. Response is 1 when inhibition of cAMP production, 10 nM meets or exceeds it, else 0.

Solved entries (count: 5):
H[Aib][CNB]GTFTSD[Bip(2'-Et-4'-OMe)][hhPhe] (reading uncertain) [Seq. ID. No. 29: H-Aib-(CNB)-GTFTSD-Bip(OMe)-(APPA)]
1
H[Aib][CNB]G[aThr][αMePhe(2-F)][aThr]SD[Bip(2'-Et-4'-OMe)][2F‑APPA] (reading uncertain; also: reduced (CH2) bonds Z9-Z10 and Z10-Z11) [Seq. ID. No. 204: H-Aib-(CNB)-G-T(allo)-(α-Me-2F-Phe)-T(allo)-SD-(CH2)-Bip(OMe)-(CH2)-(2F-APPA)]
0
H[Aib][CNB]G[aThr][αMePhe(2-F)][aThr]SD[Bip(2'-Et-4'-OMe)][hhPhe] (reading uncertain; also: thioamide bond between residues 10 and 11) [Seq. ID. No. 166: H-Aib-(CNB)-G-T(allo)-(α-Me-2F-Phe)-T(allo)-SD-Bip(OMe)-(C═S)-(APPA)]
1
Moc-H[Aib]QGT[αMePhe(2-F)]TSD[Bip(2'-Et-4'-OMe)][hhPhe] (also: reduced (CH2) bonds between 9-10 and 10-11) [Seq. ID. No. 194: CH3OCO-H-Aib-QGT-(α-Me-2F-Phe)-TSD-(CH2)-Bip(OMe)-(CH2)-(APPA)]
1
H[Ac5c]QGTFTSD[Bip(2'-Et-4'-OMe)][AMCB] [Seq. ID. No. 28: H-(APP)-QGTFTSD-Bip(OMe)-(AMCB)]
1

API: above_or_equal(metric=inhibition of cAMP production, 10 nM, cutoff=8 pmol/ml/µg prt) for item Moc-H[Aib]QGT[αMePhe(2-F)]TSD[Bip(2'-Et-4'-OMe)][hhPhe] (also: thioamide bonds between residues 9-10 and 10-11) [Seq. ID. No. 170: CH3OCO-H-Aib-QGT-(α-Me-2F-Phe)-TSD-(C═S)-Bip(OMe)-(C═S)-(APPA)] 0

Same for Moc-H[Aib]QGT[αMePhe(2-F)]TSD[Bip(2'-Et-4'-OMe)][2F‑APPA] (also: thioamide bonds between residues 9-10 and 10-11) [Seq. ID. No. 172: CH3OCO-H-Aib-QGT-(α-Me-2F-Phe)-TSD-(C═S)-Bip(OMe)-(C═S)-(2F-APPA)] 0

Same for H[Aib][CNB]G[aThr][αMePhe(2-F)][aThr]SD[Bip(2'-Et-4'-OMe)][2F‑APPA] (reading uncertain; also: reduced (CH2) bond between 10 and 11) [Seq. ID. No. 192: H-Aib-(CNB)-G-T(allo)-(α-Me-2F-Phe)-T(allo)-SD-Bip(OMe)-(CH2)-(2F-APPA)] 0

Same for Ac-H[Aib]QG[aThr][αMePhe(2-F)][aThr]SD[Bip(2'-Et-4'-OMe)][hhPhe] (also: reduced (CH2) bonds between 9-10 and 10-11) [Seq. ID. No. 197: CH3CO-H-Aib-QG-T(allo)-(α-Me-2F-Phe)-T(allo)-SD-(CH2)-Bip(OMe)-(CH2)-(APPA)] 1

Same for Moc-H[Aib][CNB]GT[αMePhe(2-F)]TSD[Bip(2'-Et-4'-OMe)][2F‑APPA] (reading uncertain) [Seq. ID. No. 208: CH3OCO-H-Aib-(CNB)-GT-(α-Me-2F-Phe)-TSD-Bip(OMe)-(2F-APPA)] 0

Same for H[Aib][Leu(5,5,5,5',5',5'-F6)]GT[αMePhe(2-F)]TSD[Bip(2'-Et-4'-OMe)][AMCB] [Seq. ID. No. 237: H-Aib-(Hfl)-GT-(α-Me-2F-Phe)-TSD-Bip(OMe)-(AMCB)] 1

Same for H[Aib][CNB]GTFTSD[Bip(2'-Et-4'-OMe)][2CF3‑APPA] (reading uncertain) [Seq. ID. No. 79: H-Aib-(CNB)-GTFTSD-Bip(OMe)-(2CF3-APPA)] 0

Same for H[Aib][Leu(5,5,5,5',5',5'-F6)]GT[αMePhe(2-F)][aThr]SD[Bip(2'-Et-4'-OMe)][hhPhe] [Seq. ID. No. 225: H-Aib-(Hfl)-GT-(α-Me-2F-Phe)-T(allo)-SD-Bip(OMe)-(APPA)] 0

Same for H[Aib][CNB]G[aThr][αMePhe(2-F)][aThr]SD[Bip(2'-Et-4'-OMe)][hhPhe] (reading uncertain) [Seq. ID. No. 114: H-Aib-(CNB)-G-T(allo)-(α-Me-2F-Phe)-T(allo)-SD-Bip(OMe)-(APPA)] 0
